- Test system: Mycobacterium tuberculosis
- assay-summary: Antimycobacterial activity against Mycobacterium tuberculosis H37Rv at 16 ug/mL by microplate alamar blue assay
- Type: functional
measured-quantity: inhibition at 16 µg/mL
For clarity, give the value followed by its unit.

{"compound-string": "CC(C)C(=O)CC[C@@H](C)[C@H]1CC[C@H]2[C@@H]3C(C=O)=C4C[C@@H](O)CC[C@]4(C)[C@H]3CC[C@]12C", "inhibition at 16 µg/mL": "92%"}
{"compound-string": "CC(C)[C@@H](C)CC[C@@H](C)[C@H]1CC[C@H]2[C@@H]3C(C=O)=C4C[C@@H](O)CC[C@]4(C)[C@H]3CC[C@]12C", "inhibition at 16 µg/mL": "99%"}

Now take the following compound into account.
Name the reported inhibition at 16 µg/mL value associated with the compound CC(C)[C@@H](C)[C@]1(C)C[C@@H]1[C@@H](C)[C@H]1CC[C@H]2[C@@H]3C(C=O)=C4C[C@@H](O)CC[C@]4(C)[C@H]3CC[C@]12C 96%
